Entries and their enrichment score values follow.
Target: biotinylated His-Avi-TEAD (194-411) (UniProt P28347)
Test: SSM screen, enrichment after two rounds of sorting
Note: the reply should be a number with no unit written.

Here are 5 binders together with their reported answers.
- BINDER: "GSPDEYIEIAKECCKKGDIQCCLRYFEESGDPNVMLICLFCP (designed binder) [R07I variant of SEQ ID NO: 1]"
  OBS VALUE: -3.98
- BINDER: "GSPMEYIERAKECCKKGDIQCCLRYFEESGDPNVMLICLFCP (designed binder) [D02M variant of SEQ ID NO: 1]"
  OBS VALUE: -1.86
- BINDER: "GSPDEYMERAKECCKKGDIQCCLRYFEESGDPNVMLICLFCP (designed binder) [I05M variant of SEQ ID NO: 1]"
  OBS VALUE: -1.87
- BINDER: "GSPDEYIERAWECCKKGDIQCCLRYFEESGDPNVMLICLFCP (designed binder) [K09W variant of SEQ ID NO: 1]"
  OBS VALUE: -4.41
- BINDER: "GSPDEYIERAKECCDKGDIQCCLRYFEESGDPNVMLICLFCP (designed binder) [K13D variant of SEQ ID NO: 1]"
  OBS VALUE: 0.43

**Q:** What value of enrichment score has been reported for the following binder? GSPDEYIERDKECCKKGDIQCCLRYFEESGDPNVMLICLFCP (designed binder) [A08D variant of SEQ ID NO: 1]
**A:** -4.17
